Test system: BDF1 mice, P388 leukemia ip, median survival T/C
Assay: NCI In Vivo Anticancer Drug Screen. Data for tumor model P388 Leukemia (intraperitoneal) in B6D2F1 (BDF1) mice
Conditions: endpoint: median survival time; dose: 200.0 mg/kg/injection; schedule: Q04DX003 (ip); vehicle: other
Inconclusive results and toxic doses are left out. Rule for the calls: active = survival T/C of 150% or more; inactive = T/C below 125% in these data.
Lab note: assign the record to one of active, inactive

A selection of reference data follows.
molecule | assigned-class
O=CN(c1ccccc1)c1ccccc1 | inactive
Cc1cc(N)c2cc(NC(=O)CCCCCCCCC(=O)Nc3ccc4nc(C)cc(N)c4c3)ccc2n1 | active
O=[N+]([O-])c1ccc2c(c1)CCCC2 | inactive

What was the test verdict on Cc1ccc(CN(CC(=O)O)S(C)(=O)=O)cc1 ?
inactive

Hey, what did the test say about CCCCCCCCCCCCCCCCSc1ccc(C)cc1 ?
inactive

Which outcome was assigned to CC(C)CC(B1OCCO1)(C1CCCCC1)C1CCCCC1 in this test?
inactive

Hi, do you know how CCN(CC)S(=O)(=O)c1cccc(C(O)CC(O)(C(F)(F)F)C(F)(F)F)c1 (configuration not stated) came out in this test?
inactive

* * *

Test system: BDF1 mice, P388 leukemia ip, median survival T/C
Experiment: NCI In Vivo Anticancer Drug Screen. Data for tumor model P388 Leukemia (intraperitoneal) in B6D2F1 (BDF1) mice
Details: endpoint: median survival time; dose: 50.0 mg/kg/injection; schedule: Q01DX005 (ip); vehicle: saline with Tween-80; higher = longer survival
Toxic doses and inconclusive results are not listed.
experimental-readout: T/C

molecule | T/C
COc1ccc(Cl)cc1NC(=O)NNC(=O)C(=O)Nc1ccc(F)cc1 | 91 % of control

Noted for C(#C[P+]1(c2ccccc2)C=C(c2ccccc2)OC(c2ccccc2)=C1)c1ccccc1 : its T/C reads 110 % of control

Entry CCC1COC(CC)N1 (stereo unspecified) , T/C reported as 103 % of control

Value of measured T/C for the entry CCSc1c(S)cnn(C)c1=O : 90 % of control

O=C1CN(Cc2ccc(Cl)cc2)CC(=O)N2CCCN12 yielded T/C of 92 % of control

The reported T/C of the molecule CCOP(=S)(OCC)Oc1cnn(C)c(=S)c1Cl was 98 % of control

* * *

Each item that follows carries a reported T/C.
Tested on: BDF1 mice, P388 leukemia ip, median survival T/C
Test: NCI In Vivo Anticancer Drug Screen. Data for tumor model P388 Leukemia (intraperitoneal) in B6D2F1 (BDF1) mice
Details: endpoint: median survival time; dose: 25.0 mg/kg/injection; schedule: Q01DX009 (ip); vehicle: saline with Tween-80; higher = longer survival
Procedure: The antitumor activity of compounds was measured in mice bearing transplantable tumors. Survival or tumor size were measured and the results are expressed as the measurement made in the treated group (T) divided by the measurement made in the vehicle treated control group (C). The tumor model used in this assay is P388 Leukemia (intraperitoneal) in B6D2F1 (BDF1) mice
Inconclusive results and toxic doses are left out.

compound | result
Cc1c(C#N)c2nc(C(=O)c3ccc(Br)cc3)cc(-c3ccc(Br)cc3)n2c1C | 109 % of control

Entry under test: O=C(NC(=O)c1c(F)cccc1F)Nc1ccc(Cl)c(Cl)c1 . Its T/C was 96 % of control

Kindly note the recorded T/C for CC(C)CC(B1OCCO1)(C1CCCCC1)C1CCCCC1 , which is 100 % of control

Noted for O=C(NC(=O)c1c(F)cccc1F)Nc1ccc([N+](=O)[O-])cn1 : its T/C reads 96 % of control

Short answer for Clc1nc(Cl)c(Cl)nc1Cl : T/C was 100 % of control

// T/C lookup, compound = C1CC2CCC1CNC2 , result: 95 % of control

* * *

System: BDF1 mice, P388 leukemia ip, median survival T/C
Assay: NCI In Vivo Anticancer Drug Screen. Data for tumor model P388 Leukemia (intraperitoneal) in B6D2F1 (BDF1) mice
Settings: endpoint: median survival time; dose: 150.0 mg/kg/injection; schedule: Q01DX009 (ip); vehicle: Klucel (hydroxypropylcellulose) (HPC); higher = longer survival
Toxic doses and inconclusive results are not listed.
experimental-readout: T/C

Previously resolved entries follow.
molecule | experimental-readout | result
CC(=O)NCCSC(=O)C(=O)SCCNC(C)=O | T/C | 95 % of control
O=C1/C(=C/c2ccco2)CC2CCCCC12 (centres undefined) | T/C | 100 % of control
N#C/C(=C1C=C(Br)/C(=N\O)C=C\1Cl)c1ccc(Cl)cc1 | T/C | 109 % of control

Recorded result, c1coc(-c2ncnc3c2Cc2ccccc2-3)c1 , T/C: 91 % of control

* * *

Quick reference: T/C of the listed items.
System: BDF1 mice, P388 leukemia ip, median survival T/C
Assay: NCI In Vivo Anticancer Drug Screen. Data for tumor model P388 Leukemia (intraperitoneal) in B6D2F1 (BDF1) mice
Settings: endpoint: median survival time; dose: 100.0 mg/kg/injection; schedule: Q01DX009 (ip); vehicle: water; higher = longer survival
Inconclusive results and toxic doses are left out.

compound-string | experimental-readout | result
COc1cc(/C=C/C(=O)c2ccc3c(c2)OCO3)ccc1OCc1ccccc1 | T/C | 95 % of control
O=[N+]([O-])c1ccc(Oc2ccc(C3N(c4ccccc4)CCN3c3ccccc3)cc2)c([N+](=O)[O-])c1 | T/C | 90 % of control
c1ccc(Cn2ccnc2C2OCCO2)cc1 | T/C | 93 % of control
N=C(N)c1ccc(C(=N)N)cc1 | T/C | 100 % of control
O=C(Cn1ccc(=O)[nH]c1=O)N1CCOCC1 | T/C | 104 % of control
CCOc1ccn(CC(=O)N2CCOCC2)c(=O)n1 | T/C | 103 % of control

Recorded T/C (molecule Cc1[nH]c(=O)[nH]c(=O)c1NCCO ): 109 % of control

* * *

Test system: BDF1 mice, P388 leukemia ip, median survival T/C
Experiment: NCI In Vivo Anticancer Drug Screen. Data for tumor model P388 Leukemia (intraperitoneal) in B6D2F1 (BDF1) mice
Conditions: endpoint: median survival time; dose: 100.0 mg/kg/injection; schedule: Q04DX003 (ip); vehicle: Klucel (hydroxypropylcellulose) (HPC); higher = longer survival
Inconclusive results and toxic doses are left out.
Listed here are compounds together with their documented T/C.

// known answers, use as guide
compound | experimental-readout | result
O=C(Cc1ccc([N+](=O)[O-])cc1)c1ccccc1 | T/C | 112 % of control
Cc1ccc(S(=O)(=O)N(CC(=O)O)c2cccc(Cl)c2)cc1 | T/C | 100 % of control
COc1cc2c(cc1OC)C(=O)C(C(=O)c1ccccc1)C2 (configuration not stated) | T/C | 100 % of control
O=C(O)CCCCCCCCCCCCO | T/C | 109 % of control
CC(=O)Nc1ccc2c([N+](=O)[O-])cccc2c1-c1c(NC(C)=O)ccc2c([N+](=O)[O-])cccc12 | T/C | 109 % of control
CCCCSCC(N)C(=O)O (configuration not stated) | T/C | 104 % of control
O=S(=O)(Nc1ccc(C(F)(F)F)cc1)c1ccc(C(F)(F)F)cc1 | T/C | 90 % of control
OC12CCCC3CCCC(CCC1)C32 (configuration not stated) | T/C | 100 % of control
CC(c1ccccc1)C1N(c2ccccc2)CCN1c1ccccc1 (configuration not stated) | T/C | 96 % of control
COc1cc(N(C)C)c(OC)cc1C=O | T/C | 95 % of control

Lab note: COc1ccc2c(c1C)CCC1(CO)C(C(C)=O)=CCC21 (configuration not stated) gave T/C of 100 % of control

get_value(item= CC(Sc1ncnc2nc[nH]c12)c1ccccc1 (configuration not stated) , readout=T/C) returns 100 % of control

* * *

Test system: BDF1 mice, P388 leukemia ip, median survival T/C
Experiment: NCI In Vivo Anticancer Drug Screen. Data for tumor model P388 Leukemia (intraperitoneal) in B6D2F1 (BDF1) mice
Details: endpoint: median survival time; dose: 50.0 mg/kg/injection; schedule: Q01DX009 (ip); vehicle: Klucel (hydroxypropylcellulose) (HPC)
Toxic doses and inconclusive results are not listed. Rule for the calls: active = survival T/C of 150% or more; inactive = T/C below 125% in these data.
Pick from active, inactive when you respond.

molecule | target | assigned-class
O=[N+]([O-])c1ccc([N+](=O)[O-])c(Cl)c1 | BDF1 mice, P388 leukemia ip, median survival T/C | inactive
C[C@@H]1C[C@@]2(C)[C@@H](CC[C@@H]3[C@@H]2CC[C@]2(C)[C@@H](OC4CCCCO4)CC[C@@H]32)CC1=O (stereo partly drawn) | BDF1 mice, P388 leukemia ip, median survival T/C | inactive
O=S1(=O)CCN(Cc2ccccc2)CC1 | BDF1 mice, P388 leukemia ip, median survival T/C | inactive
COc1ccc(OC)c(/C=C/[N+](=O)[O-])c1 | BDF1 mice, P388 leukemia ip, median survival T/C | inactive
CCOC(=O)Nc1ccc2c(c1)/C(=N\NC(N)=S)c1ccccc1-2 | BDF1 mice, P388 leukemia ip, median survival T/C | inactive
NC(CSC(c1ccccc1)(c1ccccc1)c1ccc(CO)cc1)C(=O)O (stereo not drawn) | BDF1 mice, P388 leukemia ip, median survival T/C | active
c1ccc2c(c1)CC1CCCCN1C2 (stereo not drawn) | BDF1 mice, P388 leukemia ip, median survival T/C | inactive
CC(C)(C)C1C2N1C1(c3ccccc3)OC2(c2ccccc2)c2ccccc21 (stereo not drawn) | BDF1 mice, P388 leukemia ip, median survival T/C | inactive

Hi, do you know how CCCc1nc2c(OC)ccc(OC)c2nc1C came out in this test?
inactive

Record request — test call for c1ccc2c(c1)C1c3cccc[n+]3C2CC1n1c2ccccc2c2ccccc21 (stereo not drawn)
inactive

Which outcome did this test record for the molecule C=CC(C)(C)C12CC3C(=O)N/C(=C\c4cnc[nH]4)C(=O)N3C1Nc1ccccc12 (stereo not drawn) ?
inactive

So what was the verdict on Nc1cc(N)cc(Cc2ccccc2)c1 in this test?
inactive

I would be grateful if you could indicate the recorded call for Cc1cc(N)c2cc(NC(=O)CCCCCCCCC(=O)Nc3ccc4nc(C)cc(N)c4c3)ccc2n1 .
active

In this assay, the call recorded for CC12CCC3C(CCC4=CC(=O)CCC43C)C1CCC(=O)O2 (stereo not drawn) was what?
inactive

Look up the recorded call for C#CCOC(=O)NC1CCCCC1 in this test.
inactive

How was C#CC[N+]1=CN(c2ccc(C)cc2)Cc2cc(C)ccc21 classified in this test?
inactive

Kindly provide the recorded test outcome for the following molecule: CCCCN(CCCC)CCCNC(=O)OCC
inactive

Look up the recorded call for NC(CSC(c1ccccc1)(c1ccccc1)c1ccccc1)C(=O)O (stereo not drawn) in this test.
inactive

So what was the verdict on O=c1[nH]c2cc(Cl)c(Cl)cc2o1 in this test?
inactive

Can you look up the reported call for CCOC(=O)c1ccc(C(=O)OCC)c(Cl)n1 for me?
inactive

What call does the record list for CSc1nc(N)cc(NC(=O)CCl)n1 ?
inactive

What call does the record list for CSc1cccc(NC(=O)OCCOc2ccc(-c3ccccc3)cc2)c1 ?
inactive

Assay outcome for O=C(Nc1ccc(F)cc1F)Oc1cccc2cccnc12 : what was it?
inactive

Check the results log: what was the call for COc1cc(N(C)C)c(OC)cc1C=O ?
inactive

Which outcome did this test record for the molecule Nc1ncnc2c1cnn2Cc1ccc(Cl)cc1 ?
inactive

Could you please tell me the result logged for CCCN1CSC(=S)N(CCC)C1 in this assay?
inactive

Query: recorded result category for Cn1c(C(Cl)Cl)nc2ccccc2c1=O in this test
inactive

Could you kindly confirm the outcome this assay logged for COc1ccc(C(C#N)N2CCCCC2)cc1 (stereo not drawn) ?
inactive
